Assign Mortality in 12 days to each entry below.
Tested on: Sarcoma 180
Assay Explanation: In Vivo Antitumor Activity Against Sarcoma 180
Setup Conditions: 6.25 mg/kg/day, i.p., days 1, 5 and 9

Some solved entries appear below for comparison.
{"columns": ["Compound", "Result"],
 "data": [
  ["O=C1C[C@@H]2O[C@@H](CSCc3ccccc3)CN12 (racemic) [compound 41]", "0/6"],
  ["O=COC[C@H]1CN2C(=O)C[C@@H]2O1 (racemic) [compound 3]", "0/7"],
  ["COc1ccc(C(=O)OC[C@H]2CN3C(=O)C[C@@H]3O2)cc1 (relative stereo) [compound 20]", "0/7"]
]}

Kindly consider the entry below.
Value sought: Mortality in 12 days, system Sarcoma 180, item CC(=O)OC[C@H]1CN2C(=O)C[C@@H]2O1 (racemic) [compound 4] . Result: 0/7

====

Assign CC50 to each entry below.
Test system: L1210 cells
Assay Explanation: cells
Assay type: cell-based
Setup Conditions: Mus musculus, L1210, 72 h, read-out: Cytotoxicity TD50 L1210
One number for each entry, in µg/mL.

Quick request: CC50 for each listed item, please.
1. O=C1C[C@@H]2O[C@@H](C[S+]([O-])c3ccccc3)CN12 (mixture of isomers)
2. CC(=O)OC[C@H]1CN2C(=O)C[C@@H]2O1 (racemic)

0.26
0.4

Quick request: CC50 for each listed item, please.
1. O=C(CCl)OC[C@H]1CN2C(=O)C[C@@H]2O1 (racemic)
2. CCC=CCC=CCC=CCCCCCCCC(=O)OC[C@H]1CN2C(=O)C[C@@H]2O1 (relative stereo)

1: 0.28; 2: 0.5

The values you see were collected from patent US5561126A.
